Could you please report measured Rate constant with Cdk2 N272C for the items listed next?
Biological target: Cdk2(N272C) (C177A) (Homo sapiens, UniProt P24941, C177A/N272C)
Construct: poly-histidine; made in house; host or cells: E. coli
Experiment: Kinetic thiol consumption assay with Cdk2 mutant N272C
Assay type: binding
Conditions: Protein: Cdk2; cysteine position N272C; additional mutation C177A; in h^-1

query: Write down Rate constant with Cdk2 N272C measured for item C=CC(=O)N1CCCCCC1C/C=C/c1ccccc1 (centres unmarked) [CA-096/146]
result: 0.01002

query: Using the record for C=CC(=O)NCC1CCCN1S(=O)(=O)c1ccc(C(=O)O)cc1 (centres unmarked) [BN122] , state its measured Rate constant with Cdk2 N272C.
result: 0.004448

query: Please report Rate constant with Cdk2 N272C for the following compound: C=CC(=O)N1CCN(c2cccc3cccnc23)CC1 [EL-1156]
result: 0.005976

query: Provide one value: measured Rate constant with Cdk2 N272C of C=CC(=O)Nc1ccc2c(c1)OC1(CCCC1)O2 [CA-054]
result: 0.005397

query: Please give measured Rate constant with Cdk2 N272C of the following entry: C=CC(=O)N1CCn2cccc2C1c1ccccc1 (centres unmarked) [CA-187]
result: 0.03139

query: Look up and report measured Rate constant with Cdk2 N272C for this entry: C=CC(=O)Nc1cccc(Nc2ncnc3cc(OC)c(OC)cc23)c1 [GC248]
result: 0.01579

query: Fill in reported Rate constant with Cdk2 N272C for this entry: C=CC(=O)N1CC(OCc2cccc3ccccc23)C1 [CA-203]
result: 0.0379

query: In one line, give reported Rate constant with Cdk2 N272C of the entry C=CC(=O)N(Cc1ccco1)C12CC3CC(CC(C3)C1)C2 [CA-157] .
result: 0.7224

query: Consider the compound C=CC(=O)N1CCN(S(C)(=O)=O)CC1c1ccccc1 (centres unmarked) [EL-1160] and give its recorded Rate constant with Cdk2 N272C.
result: 0.0163

query: Retrieve Rate constant with Cdk2 N272C measured for C=CC(=O)NCCCN(C(=O)C1CCC1)C1CC1 [CA-060] and print it.
result: 0.01889

query: Provide Rate constant with Cdk2 N272C value for the following compound: O=C(c1ccccc1)[C@@H]1O[C@H]1c1ccccc1 [EN006]
result: 0.01282

query: Assign Rate constant with Cdk2 N272C to the following record: C=CC(=O)N(CC(=O)N1CCCC1)CC1CCCO1 (centres unmarked) [CA-080/239]
result: 0.003318

query: Could you please provide reported Rate constant with Cdk2 N272C for C=CC(=O)Nc1ccc(C(=O)NC2CCCC2)cc1 [EL-1114] ? Thanks!
result: 0.001386

query: Give recorded Rate constant with Cdk2 N272C. C=CC(=O)Nc1ccc(C(=O)c2ccccc2)cc1 [CA-219]
result: 0.0558
